Source listed as ChEMBL document CHEMBL4138077.

pIC50 values, listed per item
TARGET_DESC: UniProt:O42275
Sequence (O42275 whole entry): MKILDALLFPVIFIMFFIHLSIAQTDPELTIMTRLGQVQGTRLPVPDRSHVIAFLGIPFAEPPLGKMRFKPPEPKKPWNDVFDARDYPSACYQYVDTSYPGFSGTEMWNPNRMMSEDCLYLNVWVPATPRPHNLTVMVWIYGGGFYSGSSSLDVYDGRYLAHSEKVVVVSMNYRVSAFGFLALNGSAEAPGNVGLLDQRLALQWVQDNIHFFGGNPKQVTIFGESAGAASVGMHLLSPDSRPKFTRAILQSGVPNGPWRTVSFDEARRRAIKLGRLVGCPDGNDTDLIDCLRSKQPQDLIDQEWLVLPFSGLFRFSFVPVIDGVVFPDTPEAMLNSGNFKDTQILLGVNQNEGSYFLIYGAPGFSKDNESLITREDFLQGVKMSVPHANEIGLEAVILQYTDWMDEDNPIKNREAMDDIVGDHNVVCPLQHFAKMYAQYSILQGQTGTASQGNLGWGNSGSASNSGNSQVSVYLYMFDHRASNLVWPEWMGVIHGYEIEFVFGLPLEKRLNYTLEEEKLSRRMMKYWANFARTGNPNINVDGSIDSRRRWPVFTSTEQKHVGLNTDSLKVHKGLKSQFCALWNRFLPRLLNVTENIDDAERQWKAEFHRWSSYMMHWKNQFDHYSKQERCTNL
ASSAY_REMARKS: Inhibition of electric eel AChE using acetylthiocholine iodide as substrate preincubated for 5 mins followed by substrate addition measured after 2 mins by spectroscopy based Ellman's method
pIC50: −log10 of the molar value.
MEASURE: pIC50

smiles_input=Cc1cc(N2CCN(c3nc(Nc4cccc(C(F)(F)F)c4)nc(NC4CC4)n3)CC2)n2ncnc2n1 test_value=6.04
smiles_input=Cc1cc(N2CCN(c3nc(Nc4cccc(C(F)(F)F)c4)nc(Nc4ccc(F)c(Cl)c4)n3)CC2)n2ncnc2n1 test_value=6.41
smiles_input=Cc1cc(N2CCN(c3nc(Cl)nc(Nc4ccc(F)cc4)n3)CC2)n2ncnc2n1 test_value=6.94
smiles_input=Cc1ccc(Nc2nc(Nc3ccc(F)c(Cl)c3)nc(N3CCN(c4cc(C)nc5ncnn45)CC3)n2)cc1 test_value=6.07
smiles_input=COc1ccc(Nc2nc(Cl)nc(N3CCN(c4cc(C)nc5ncnn45)CC3)n2)cc1 test_value=7.04
smiles_input=Cc1ccc(Nc2nc(Nc3cccc(C(F)(F)F)c3)nc(N3CCN(c4cc(C)nc5ncnn45)CC3)n2)cc1 test_value=6.25
smiles_input=FC(F)(F)c1cccc(Nc2nc(NC3CC3)nc(N3CCNCC3)n2)c1 test_value=5.90
smiles_input=Fc1ccc(Nc2nc(Cl)nc(Nc3cccc(C(F)(F)F)c3)n2)cc1 test_value=6.28
smiles_input=COc1ccc(Nc2nc(Cl)nc(Nc3ccc(F)c(Cl)c3)n2)cc1 test_value=6.15

###

pIC50 values, listed per item
TARGET_DESC: Cholinesterase (Equus caballus, UniProt P81908)
Sequence (P81908 whole entry): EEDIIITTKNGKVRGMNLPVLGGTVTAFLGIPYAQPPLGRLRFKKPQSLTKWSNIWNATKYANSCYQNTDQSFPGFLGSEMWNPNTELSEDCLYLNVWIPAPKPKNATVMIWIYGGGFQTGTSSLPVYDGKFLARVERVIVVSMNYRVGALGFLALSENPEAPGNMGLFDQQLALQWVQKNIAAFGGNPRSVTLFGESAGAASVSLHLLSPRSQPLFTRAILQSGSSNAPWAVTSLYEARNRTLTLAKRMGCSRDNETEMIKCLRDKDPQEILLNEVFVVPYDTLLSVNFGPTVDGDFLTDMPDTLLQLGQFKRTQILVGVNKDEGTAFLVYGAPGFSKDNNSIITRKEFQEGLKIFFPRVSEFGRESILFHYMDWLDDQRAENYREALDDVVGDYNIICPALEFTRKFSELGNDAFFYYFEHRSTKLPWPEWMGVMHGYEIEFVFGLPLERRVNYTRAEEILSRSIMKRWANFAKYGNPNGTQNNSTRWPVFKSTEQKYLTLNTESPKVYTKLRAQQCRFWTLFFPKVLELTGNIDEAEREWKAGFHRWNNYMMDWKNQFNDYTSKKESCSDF
ASSAY_REMARKS: Inhibition of equine serum BuChE using butyrylthiocholine iodide as substrate preincubated for 5 mins followed by substrate addition measured after 2 mins by spectroscopy based Ellman's method
pIC50: −log10 of the molar value.
MEASURE: pIC50

smiles_input=Cc1cc(N2CCN(c3nc(Cl)nc(Nc4cccc(C(F)(F)F)c4)n3)CC2)n2ncnc2n1 measure=pIC50 test_value=5.73
smiles_input=Cc1cc(N2CCN(c3nc(Nc4cccc(C(F)(F)F)c4)nc(Nc4ccc(F)c(Cl)c4)n3)CC2)n2ncnc2n1 measure=pIC50 test_value=5.58
smiles_input=COc1ccc(Nc2nc(Cl)nc(Nc3cccc(C(F)(F)F)c3)n2)cc1 measure=pIC50 test_value=5.53
smiles_input=Cc1cc(N2CCN(c3nc(Nc4cccc(C(F)(F)F)c4)nc(NC4CC4)n3)CC2)n2ncnc2n1 measure=pIC50 test_value=5.72
smiles_input=Cc1ccc(Nc2nc(Nc3ccc(F)c(Cl)c3)nc(N3CCN(c4cc(C)nc5ncnn45)CC3)n2)cc1 measure=pIC50 test_value=5.42
smiles_input=Fc1ccc(Nc2nc(Cl)nc(Nc3cccc(C(F)(F)F)c3)n2)cc1 measure=pIC50 test_value=5.61
smiles_input=Cc1ccc(Nc2nc(Cl)nc(Nc3cccc(C(F)(F)F)c3)n2)cc1 measure=pIC50 test_value=5.68
smiles_input=Fc1ccc(Nc2nc(Cl)nc(Nc3cccc(C(F)(F)F)c3)n2)c(F)c1 measure=pIC50 test_value=5.36
smiles_input=Fc1ccc(Nc2nc(Cl)nc(Nc3cccc(C(F)(F)F)c3)n2)cc1Cl measure=pIC50 test_value=5.40
smiles_input=Cc1cc(N2CCN(c3nc(Nc4ccc(F)cc4)nc(Nc4cccc(C(F)(F)F)c4)n3)CC2)n2ncnc2n1 measure=pIC50 test_value=5.60
smiles_input=Cc1cc(N2CCN(c3nc(Cl)nc(Nc4ccc(F)cc4)n3)CC2)n2ncnc2n1 measure=pIC50 test_value=6.03
smiles_input=Cc1ccc(Nc2nc(Nc3cccc(C(F)(F)F)c3)nc(N3CCN(c4cc(C)nc5ncnn45)CC3)n2)cc1 measure=pIC50 test_value=5.76
smiles_input=COc1ccc(Nc2nc(Cl)nc(N3CCN(c4cc(C)nc5ncnn45)CC3)n2)cc1 measure=pIC50 test_value=5.82
smiles_input=FC(F)(F)c1cccc(Nc2nc(NC3CC3)nc(N3CCNCC3)n2)c1 measure=pIC50 test_value=5.44
smiles_input=COc1ccc(Nc2nc(Cl)nc(Nc3ccc(F)c(Cl)c3)n2)cc1 measure=pIC50 test_value=5.79
smiles_input=Cc1cc(N2CCN(c3nc(Cl)nc(Nc4ccccc4F)n3)CC2)n2ncnc2n1 measure=pIC50 test_value=5.65
smiles_input=Cc1ccc(Nc2nc(Cl)nc(Nc3ccc(F)c(Cl)c3)n2)cc1 measure=pIC50 test_value=5.56

###

inhibition values, listed per item
TARGET_DESC: Amyloid-beta precursor protein (Homo sapiens)
Sequence (P05067 whole entry, the tested form may be a part): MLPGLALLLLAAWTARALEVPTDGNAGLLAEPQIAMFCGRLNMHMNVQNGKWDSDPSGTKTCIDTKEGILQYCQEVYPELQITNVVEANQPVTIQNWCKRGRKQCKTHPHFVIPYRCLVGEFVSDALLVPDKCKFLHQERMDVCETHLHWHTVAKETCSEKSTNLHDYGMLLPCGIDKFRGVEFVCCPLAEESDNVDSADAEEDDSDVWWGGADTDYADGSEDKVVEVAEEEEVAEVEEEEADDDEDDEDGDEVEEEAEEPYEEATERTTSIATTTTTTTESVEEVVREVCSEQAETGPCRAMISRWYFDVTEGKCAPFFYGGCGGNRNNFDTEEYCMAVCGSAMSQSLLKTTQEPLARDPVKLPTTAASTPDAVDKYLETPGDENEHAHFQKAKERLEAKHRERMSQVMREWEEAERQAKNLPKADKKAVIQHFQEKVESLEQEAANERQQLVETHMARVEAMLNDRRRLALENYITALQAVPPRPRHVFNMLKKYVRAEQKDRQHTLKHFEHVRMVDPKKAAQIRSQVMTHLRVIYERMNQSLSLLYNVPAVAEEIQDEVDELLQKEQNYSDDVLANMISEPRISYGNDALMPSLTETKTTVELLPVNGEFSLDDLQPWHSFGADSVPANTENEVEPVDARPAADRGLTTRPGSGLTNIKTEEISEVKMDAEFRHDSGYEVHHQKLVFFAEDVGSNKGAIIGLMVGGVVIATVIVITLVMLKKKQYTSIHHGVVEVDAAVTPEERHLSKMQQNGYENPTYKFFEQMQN
ASSAY_REMARKS: Inhibition of HFIP-pretreated amyloid beta (1 to 42 residues) (unknown origin) self aggregation at 25 uM after 24 hrs by ThT-based fluorometric method
MEASURE: inhibition (%)

smiles_input=Cc1cc(N2CCN(c3nc(Nc4cccc(C(F)(F)F)c4)nc(Nc4ccc(F)c(Cl)c4)n3)CC2)n2ncnc2n1 target_desc="Amyloid-beta precursor protein (Homo sapiens)" measure=inhibition test_value=61.7
smiles_input=FC(F)(F)c1cccc(Nc2nc(NC3CC3)nc(N3CCNCC3)n2)c1 target_desc="Amyloid-beta precursor protein (Homo sapiens)" measure=inhibition test_value=58.8
smiles_input=COc1ccc(Nc2nc(Cl)nc(Nc3ccc(F)c(Cl)c3)n2)cc1 target_desc="Amyloid-beta precursor protein (Homo sapiens)" measure=inhibition test_value=60.7
